Reference for the values: PubChem BioAssay (NCI)

test system: SF-295 CNS; assay: NCI tumour cell line growth inhibition, 48 h
We begin with a simple list: items and their reported GI50.

{"COMPOUND": "CC(=O)n1c(-c2ccc(Cl)cc2)nc2c(c1=O)C(c1ccc(Cl)cc1)c1sc3c(Cl)cccc3c1O2 (configuration not stated)", "GI50": "310 nM"}
{"COMPOUND": "C=CCOc1c(Br)cc(Br)cc1Br", "GI50": "2710 nM"}
{"COMPOUND": "CC(=O)O[C@H]1C(=O)[C@@]2(C)[C@H]([C@H](OC(=O)c3ccccc3)[C@]3([O-])C[C@H](OC(=O)[C@H]([O-])[C@@H](NC(=O)c4ccccc4)c4ccccc4)C(C)=C1C3(C)C)[C@]1(OC(C)=O)CO[C@@H]1C[C@@H]2[O-].[Fe+3]", "GI50": "83.6 nM"}
{"COMPOUND": "CNC(=O)c1cn(C[C@H](F)CCc2ccc(NC(=O)Cc3cc(OC4CC(F)(F)C4)cc(C)n3)nn2)nn1", "GI50": "> 100000 nM"}
{"COMPOUND": "Cc1sc(C)c(-c2ccc(CO)o2)c1-c1ccc(CO)o1", "GI50": "276 nM"}
{"COMPOUND": "Cc1ccc2/c(=C/c3ccc(N(C)C)cc3)c3cc(-c4ccccc4)[n+](C)n3c2c1", "GI50": "352 nM"}
{"COMPOUND": "C=CC(=O)Nc1cccc(Nc2nc(Nc3ccc(OCCOC)cc3)ncc2F)c1", "GI50": "2950 nM"}

###

system: LOX IMVI melanoma; assay: NCI tumour cell line growth inhibition, 48 h
Hi, to clarify the labels: y covers TGI from 5 µM upward, n covers anything below 5 µM.

{"COMPOUND": "COC(=O)C(Cc1ccccc1)N/C=C\\C(=O)c1ccc(Cl)cc1 (stereo not given)", "CAT": "y"}
{"COMPOUND": "CCCCCC(=O)Oc1ccc(/C(=C(\\C)c2ccc(OC)cc2)c2ccc(OCCN3CCCCC3)cc2)cc1", "CAT": "y"}
{"COMPOUND": "CCN(Cc1c(F)cccc1F)c1ccc(CO)c(Cl)c1", "CAT": "y"}
{"COMPOUND": "CCN(CC)C(=S)SS(=O)(=O)c1ccc(C)cc1", "CAT": "y"}
{"COMPOUND": "CC1(C)[C@@H]2C[C@H]1c1cnc(-c3ccccn3)cc1[C@H]2C(O)[C@@H]1c2cc(-c3ccccn3)ncc2[C@H]2C[C@@H]1C2(C)C (stereo not given in full)", "CAT": "n"}
{"COMPOUND": "Cc1noc(C)c1-c1ccc2[nH]c(=O)n3c2c1OC[C@@H]3c1ccccn1", "CAT": "y"}
{"COMPOUND": "COc1ccc2c(c1)C=CC(C#N)N2C(=O)c1ccccc1 (stereo not given)", "CAT": "y"}
{"COMPOUND": "COC(=O)NC/C=C\\c1nc(CC/C=C\\C(=O)OC2CC3CC(=O)O[C@@H](/C=C/CC(C)C)C[C@@H]4CCC(C)C(C[C@@H](OC)CC(C2)O3)O4)co1 (stereo not given in full)", "CAT": "y"}
{"COMPOUND": "COC(=O)C(CCSC)NC(=O)CSc1nnc(COc2ccc(Cl)cc2)n1-c1ccccc1 (stereo not given)", "CAT": "y"}
{"COMPOUND": "Cc1c(C(=O)NN)nnn1-c1ccnc2c(C(F)(F)F)cccc12", "CAT": "y"}
{"COMPOUND": "O=C(Nc1cc(-c2ccccc2)[nH]n1)c1ccc(Cl)cc1", "CAT": "y"}
{"COMPOUND": "CCNC(=S)N/N=C/c1ccccn1", "CAT": "y"}
{"COMPOUND": "NC(N)=N/N=C/c1c(-c2ccccn2)nc2sc(Cl)cn12", "CAT": "y"}
{"COMPOUND": "O=C1CCn2c([nH]c3cccc4cccc2c43)=N1", "CAT": "y"}
{"COMPOUND": "COC(=O)/C=C\\S/C(=C(/c1ccccc1)n1ccc(C(=O)OC)n1)c1ccccc1", "CAT": "y"}
{"COMPOUND": "CN(C)C(=S)/N=c1\\ss/c(=N\\S(=O)(=O)c2ccccc2)n1-c1ccccc1", "CAT": "y"}
{"COMPOUND": "CCCCCC(C(O)C#N)C(O)(C(F)(F)F)C(F)(F)F (stereo not given)", "CAT": "y"}
{"COMPOUND": "O=C(NCCCNCCCCNCCCNC(=O)C(F)(F)F)C(F)(F)F", "CAT": "y"}
{"COMPOUND": "COc1cc(/C=C2\\CC3C4CC=C5CC(N6CCCC6)CC[C@]5(C)C4CC[C@]3(C)C2OC(C)=O)ccc1OCCN1CCCC1 (stereo not given in full)", "CAT": "n"}
{"COMPOUND": "N#Cc1c(-c2ccccc2)nc2c(c(-c3ccccc3)nn2-c2ccccc2)c1-c1ccc(O)cc1", "CAT": "n"}

###

Measured GI50, listed per entry.
tested on: HCT-15 colon; assay: NCI tumour cell line growth inhibition, 48 h
MEASURED_PROPERTY: GI50

{"COMPOUND_STRING": "CN(C)c1nc(-c2cccs2)n2nc(-c3ccc(Cl)cc3)cc2n1", "ASSAY_VALUE": "> 100000 nM"}
{"COMPOUND_STRING": "CCCCCCNc1nc(NCCCCCC)c2[nH]c(NCCCCCC)nc2n1", "ASSAY_VALUE": "10700 nM"}
{"COMPOUND_STRING": "COc1ccc(NC2=C(Br)C(=O)C(C)=C(C)C2=O)cc1", "ASSAY_VALUE": "11400 nM"}
{"COMPOUND_STRING": "CC(=O)[CH-]C(C)=O.CC(=O)[CH-]C(C)=O.N=CC=N.[Sn+2]", "ASSAY_VALUE": "2700 nM"}
{"COMPOUND_STRING": "N#Cc1c(-c2ccccc2)nc2c(c(-c3ccccc3)nn2-c2ccccc2)c1-c1ccc(O)cc1", "ASSAY_VALUE": "1620 nM"}
{"COMPOUND_STRING": "c1cc[c]([Sn]([S]c2cccc3cccnc23)([c]2ccccc2)[c]2ccccc2)cc1", "ASSAY_VALUE": "19.6 nM"}
{"COMPOUND_STRING": "CCCNCc1cc(C)cc2c1nc(N1CCNCC1)n2Cc1cc(C)c(F)c(C)c1", "ASSAY_VALUE": "4460 nM"}
{"COMPOUND_STRING": "Oc1ccc(Cc2ccccc2)c2cccnc12", "ASSAY_VALUE": "507 nM"}
{"COMPOUND_STRING": "CCN(CCO)CCNc1ccc(C)c2sc3cc(Cl)ccc3c(=O)c12", "ASSAY_VALUE": "538 nM"}
{"COMPOUND_STRING": "C=CC(=O)Nc1cccc(Nc2nc(Nc3ccc(OCCOC)cc3)ncc2F)c1", "ASSAY_VALUE": "1030 nM"}

###

system: NCI-H226 lung; test: NCI tumour cell line growth inhibition, 48 h
Entries annotated with measured TGI

{"COMPOUND": "COc1ccc2c(c1)C=CC(C#N)N2C(=O)c1ccccc1 (stereo not given)", "TGI": "> 100 µM"}
{"COMPOUND": "OC(c1ccco1)C(F)(F)c1nc2ccccc2o1 (stereo not given)", "TGI": "> 100 µM"}
{"COMPOUND": "COc1cc(/C=C2\\CC3C4CC=C5CC(N6CCCC6)CC[C@]5(C)C4CC[C@]3(C)C2OC(C)=O)ccc1OCCN1CCCC1 (stereo not given in full)", "TGI": "10.1 µM"}
{"COMPOUND": "NS(=O)(=O)c1nnc(NSc2ccc([N+](=O)[O-])cc2)s1", "TGI": "> 100 µM"}
{"COMPOUND": "COC(=O)NC/C=C\\c1nc(CC/C=C\\C(=O)OC2CC3CC(=O)O[C@@H](/C=C/CC(C)C)C[C@@H]4CCC(C)C(C[C@@H](OC)CC(C2)O3)O4)co1 (stereo not given in full)", "TGI": "> 100 µM"}

###

tested on: OVCAR-4 ovarian; assay: NCI tumour cell line growth inhibition, 48 h
Each item that follows carries a reported TGI.
MEASURED_PROPERTY: TGI

{"COMPOUND": "CCOC(=O)C(C)NC(=O)N(C)C12CC3CC(CC(C3)C1)C2 (stereo unspecified)", "MEASURED_PROPERTY": "TGI", "ASSAY_VALUE": "> 472 µM"}
{"COMPOUND": "CCC1(CC)C(=O)NC(=S)N=C1N", "MEASURED_PROPERTY": "TGI", "ASSAY_VALUE": "> 100 µM"}
{"COMPOUND": "COc1cc2nc(-c3c(F)cccc3F)n(Cc3c(F)cccc3F)c2cc1Cc1c(F)cccc1F", "MEASURED_PROPERTY": "TGI", "ASSAY_VALUE": "10.9 µM"}
{"COMPOUND": "COc1cc(CCCOC2OC(COC3OCC(O)C(O)C3O)C(O)C(O)C2O)cc2cc(-c3ccc4c(c3)OCO4)oc12 (stereo unspecified)", "MEASURED_PROPERTY": "TGI", "ASSAY_VALUE": "> 175 µM"}
{"COMPOUND": "Cc1ccc(C(=O)c2[nH]c(Nc3cc(C)ccn3)c(C(=S)Nc3ccccc3)c2N)cc1", "MEASURED_PROPERTY": "TGI", "ASSAY_VALUE": "> 100 µM"}
{"COMPOUND": "Cc1ccc2c(c1)C(=O)/C(=C\\c1ccc(Cl)cc1)CCS2(=O)=O", "MEASURED_PROPERTY": "TGI", "ASSAY_VALUE": "6.93 µM"}
{"COMPOUND": "C=C1CC=CC(C)(C)C1C/C=C(\\C)C(O)CBr (stereo unspecified)", "MEASURED_PROPERTY": "TGI", "ASSAY_VALUE": "> 100 µM"}
{"COMPOUND": "CC1=CCC[C@H]2[C@](C)(CC3=CC(=O)C4SCCSC4C3=O)[C@@H](C)CC[C@]12C (stereo partly specified)", "MEASURED_PROPERTY": "TGI", "ASSAY_VALUE": "> 100 µM"}
{"COMPOUND": "COc1ccc(NC2=C(Br)C(=O)C(C)=C(C)C2=O)cc1", "MEASURED_PROPERTY": "TGI", "ASSAY_VALUE": "2.97 µM"}
{"COMPOUND": "Cc1ccc2/c(=C/c3ccc(N(C)C)cc3)c3cc(-c4ccccc4)[n+](C)n3c2c1", "MEASURED_PROPERTY": "TGI", "ASSAY_VALUE": "20.2 µM"}
{"COMPOUND": "CCOC1NC(=O)c2ccccc21 (stereo unspecified)", "MEASURED_PROPERTY": "TGI", "ASSAY_VALUE": "> 100 µM"}
{"COMPOUND": "C=C1CC2C(=O)N(c3ccccc3)C(=O)C2CC1n1[nH]c(=O)n(Cc2ccccc2)c1=O (stereo unspecified)", "MEASURED_PROPERTY": "TGI", "ASSAY_VALUE": "> 100 µM"}
{"COMPOUND": "O=P(O)(O)C(O)(Cn1ccnc1)P(=O)(O)O", "MEASURED_PROPERTY": "TGI", "ASSAY_VALUE": "> 100 µM"}
{"COMPOUND": "CCCCCC(C(O)C#N)C(O)(C(F)(F)F)C(F)(F)F (stereo unspecified)", "MEASURED_PROPERTY": "TGI", "ASSAY_VALUE": "> 10 µM"}
{"COMPOUND": "CC1(C)[C@@H]2C[C@H]1c1cnc(-c3ccccn3)cc1[C@H]2C(O)[C@@H]1c2cc(-c3ccccn3)ncc2[C@H]2C[C@@H]1C2(C)C (stereo partly specified)", "MEASURED_PROPERTY": "TGI", "ASSAY_VALUE": "> 9.95 µM"}
{"COMPOUND": "COc1cc(/C=C2\\CC3C4CC=C5CC(N6CCCC6)CC[C@]5(C)C4CC[C@]3(C)C2OC(C)=O)ccc1OCCN1CCCC1 (stereo partly specified)", "MEASURED_PROPERTY": "TGI", "ASSAY_VALUE": "5.74 µM"}
{"COMPOUND": "C=CC(=O)N1CCN(c2ncnc3c(F)c(-c4c(O)cccc4F)c(Cl)cc23)CC1", "MEASURED_PROPERTY": "TGI", "ASSAY_VALUE": "43.4 µM"}
{"COMPOUND": "COc1ccc2c(c1)C=CC(C#N)N2C(=O)c1ccccc1 (stereo unspecified)", "MEASURED_PROPERTY": "TGI", "ASSAY_VALUE": "> 100 µM"}
{"COMPOUND": "COC(=O)C1=C(C(=O)OC)C2(C)CCC(=O)C1O2 (stereo unspecified)", "MEASURED_PROPERTY": "TGI", "ASSAY_VALUE": "> 10 µM"}
{"COMPOUND": "c1ccc2c(c1)N=C(c1cccc3ccccc13)CC(c1cccc3ccccc13)S2 (stereo unspecified)", "MEASURED_PROPERTY": "TGI", "ASSAY_VALUE": "12.4 µM"}
{"COMPOUND": "NCCN1CCN(c2nccc(-c3ccc4ccccc4c3)n2)CC1", "MEASURED_PROPERTY": "TGI", "ASSAY_VALUE": "7.5 µM"}
